Assay: Partition coefficient (logP)
Type: physicochemical
Details: octanol/water
measurement-kind: logP
Answer as a number with no unit attached.

## Input Using known records, supply logP for O=C1Nc2ccc3cc4ccccc4nc3c2CO1
## Output 1.64

## Input Using known records, supply logP for CN1COCc2c1ccc1cc3ccc4c(c3nc21)COC(=O)N4
## Output 1.7

## Input Using known records, supply logP for Nc1ccc2cc3ccccc3nc2c1CO
## Output 1.77

## Input Using known records, supply logP for CCOC(=O)Nc1ccc2cc3ccc(NC)c(CO)c3nc2c1
## Output 1.97

## Input Using known records, supply logP for c1cc2cc3ccc4c(c3nc2c2c1NCOC2)COCN4
## Output 2.17

## Input Using known records, supply logP for CN(c1ccc2cc3ccc4c(c3nc2c1)COCN4)S(C)(=O)=O
## Output 1.54

## Input Using known records, supply logP for CCOC(=O)Nc1ccc2cc3ccc4c(c3nc2c1)COCN4
## Output 2.07

## Input Using known records, supply logP for CNc1ccc2cc3ccc(N(C)S(C)(=O)=O)cc3nc2c1CO
## Output 1.56

====

Assay: Partition coefficient (logP)
Assay type: physicochemical
Conditions: octanol/water
# if value of logP reaches 2, tag condition met; if it stays below, tag condition not met

Look over these answered cases.
CN(C)c1ccc2cc3ccccc3nc2c1CO condition met
CN1COCc2c1ccc1cc3ccc(N)c(CO)c3nc21 condition not met
CNc1ccc2cc3ccc4c(c3nc2c1CO)COCN4 condition not met

Next item in the queue.
## Input Kindly determine if logP recorded for CNc1ccc2cc3ccccc3nc2c1CO is above or exactly 2.
## Output condition met

====

Catalogue of logP readings, one per entry.
Experiment: Partition coefficient (logP)
Assay type: physicochemical
Details: octanol/water
Answer as a number with no unit attached.

## Input Using known records, supply logP for CCOC(=O)Nc1ccc2cc3ccc4c(c3nc2c1)COCN4C(=O)OCC
## Output 3.12

## Input Using known records, supply logP for CS(=O)(=O)Nc1ccc2cc3ccc4c(c3nc2c1)COCN4
## Output 0.7

## Input Using known records, supply logP for CCOC(=O)N1COCc2c1ccc1cc3ccc4c(c3nc21)COCN4C(=O)OCC
## Output 2.5

====

Test: Partition coefficient (logP)
Format: physicochemical
Conditions: octanol/water
measurement-kind: logP
Answer as a number with no unit attached.

A selection of reference data follows.
CNc1ccc2cc3ccc(NS(C)(=O)=O)cc3nc2c1CO 0.55
CCOC(=O)Nc1ccc2cc3ccc4c(c3nc2c1)COC(=O)N4 2
CCOC(=O)N1COCc2c1ccc1cc3ccc(NC)c(CO)c3nc21 1.75
CCOC(=O)Nc1ccc2cc3ccc(N)c(CO)c3nc2c1 1.55

API: the following record is the query input.
## Input Using known records, supply logP for CNc1ccc2cc3ccc4c(c3nc2c1CO)COCN4S(C)(=O)=O
## Output 1.2
